Target: T1, human plasma kallikrein (human, UniProt P03952 20-390; P03952 391-638)
T1 construct: two disulfide-linked chains; NP_000883.2; also called pKal; hpKal
T1 sequence (P03952 20-390 limits assumed, chain 1 of 2): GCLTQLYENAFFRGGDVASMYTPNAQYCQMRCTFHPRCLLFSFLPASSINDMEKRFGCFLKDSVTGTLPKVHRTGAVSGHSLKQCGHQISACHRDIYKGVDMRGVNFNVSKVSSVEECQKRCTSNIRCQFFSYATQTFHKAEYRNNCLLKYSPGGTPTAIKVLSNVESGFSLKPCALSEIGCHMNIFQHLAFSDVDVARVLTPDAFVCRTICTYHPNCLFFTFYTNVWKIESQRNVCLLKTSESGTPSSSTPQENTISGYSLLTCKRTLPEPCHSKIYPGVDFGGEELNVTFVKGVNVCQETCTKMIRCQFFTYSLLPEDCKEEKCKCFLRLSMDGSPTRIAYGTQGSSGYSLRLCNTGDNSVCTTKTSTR
T1 sequence (P03952 391-638 limits assumed, chain 2 of 2): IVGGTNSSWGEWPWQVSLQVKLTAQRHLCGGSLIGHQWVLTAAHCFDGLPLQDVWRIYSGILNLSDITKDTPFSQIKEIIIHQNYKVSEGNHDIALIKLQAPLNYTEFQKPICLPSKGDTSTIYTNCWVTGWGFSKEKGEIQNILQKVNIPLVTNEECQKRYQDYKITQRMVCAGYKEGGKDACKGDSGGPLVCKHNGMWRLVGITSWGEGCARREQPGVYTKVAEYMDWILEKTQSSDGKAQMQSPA
Assay: ELISA, biotinylated pKal signal over streptavidin background
Entries annotated with measured ELISA (T/B)
Just the number, please, no unit after it.

BINDER	REPORTED VALUE
M28-D02 (Fab, V domains shown) VH: EVQLLESGGGLVQPGGSLRLSCAASGFTFSWYPMQWVRQAPGKGLEWVSYIYPSGGGTDYADSVKGRFTISRDNSKNTLYLQMNSLRAEDTATYYCATSSGWLGDAFDIWGQGTMVTVSS VL: DIQMTQSPSSLSASEGDMVTITCRTSRRIGTYLNWYQQKPGKAPKLLIYGASSLQSGVPSRFSGSGSGTDFTLTVSSLQPEDVGTYYCQQSFSSPWTFGPGTKVEIK	3.7
M11-E04 (Fab, V domains shown) VH: EVQLLESGGGLVQPGGSLRLSCAASGFTFSMYHMNWVRQAPGKGLEWVSGIVSSGGVTFYADSVKGRFTISRDNSKNTLYLQMNSLRAEDTAVYYCARITTVTTGGAFDIWGQGTMVTVSS VL: DIQMTQSPSSLSASVGDRVTITCRASQSISIYLTWYQHRPGKAPNLLIYGAATLQTGVPSRFSGSGSGTDFTLTIRGLQPEDFATYYCQQTFSLPRTFGQGTKLEIK	43.2

# context switch: different binder, same ELISA (T/B)
Q) Return reported ELISA (T/B); argument: M76-F02 (Fab, V domains shown) VH: EVQLLESGGGLVQPGGSLRLSCAASGFTFSLYDMNWVRQAPGKGLEWVSGISPSGGQTMYADSVKGRFTISRDNSKNTLYLQMNSLRAEDTAVYYCARQPMISAFDIWGQGTMVTVSS VL: DIQMTQSPSSLSASVGDRVTITCRASQTIDNYLHWYQQKPGKAPKVLIHDASSLQSGVPPRFSGSGSGTDFTLTISSLQPEDFATYYCQQSYDTPQYTFGQGTKLEIK
A) 6.4
